Test system: Escherichia coli TOP10;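 further: peptides expressed intracellularly from a pBAD plasmid library in pooled LB shake-flask culture, induced with 0.3% L-arabinose, DNA abundance read by NGS, three biological replicates, DESeq2 with apeglm shrinkage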
Assay: shrunken log2 fold change of peptide-encoding DNA abundance (4.5 h post-induction vs induction); higher = less antimicrobial activity (less host growth inhibition)
Details: time post-induction: 4.5 h; library: site-saturation at positions 5, 18, 19, 20
shrunken log2 fold change vs 0.02: at or above is Satisfied, below is Not satisfied.

>>> answer_label("RRIRMRPPRLPRPRPRPWMMPRP")
"Satisfied"
>>> answer_label("RRIRLRPPRLPRPRPRPCEKPRP")
"Not satisfied"
>>> answer_label("RRIRKRPPRLPRPRPRPLDGPRP")
"Satisfied"
>>> answer_label("RRIRVRPPRLPRPRPRPPVAPRP")
"Satisfied"
>>> answer_label("RRIRNRPPRLPRPRPRPIASPRP")
"Satisfied"
>>> answer_label("RRIRLRPPRLPRPRPRPSMLPRP")
"Not satisfied"
>>> answer_label("RRIRLRPPRLPRPRPRPCVDPRP")
"Satisfied"
>>> answer_label("RRIRKRPPRLPRPRPRPQLFPRP")
"Satisfied"
>>> answer_label("RRIRWRPPRLPRPRPRPIFNPRP")
"Not satisfied"
>>> answer_label("RRIRVRPPRLPRPRPRPDVVPRP")
"Not satisfied"
>>> answer_label("RRIRHRPPRLPRPRPRPASHPRP")
"Satisfied"
>>> answer_label("RRIRPRPPRLPRPRPRPVSRPRP")
"Satisfied"
>>> answer_label("RRIRVRPPRLPRPRPRPWNAPRP")
"Not satisfied"
>>> answer_label("RRIRDRPPRLPRPRPRPKLKPRP")
"Not satisfied"
>>> answer_label("RRIRRRPPRLPRPRPRPATWPRP")
"Satisfied"
